Biological target: T1, cMet-Fc fusion protein (extracellular domain of the cMet receptor expressed as an Fc-fusion protein) (human, UniProt P08581 25-932)
T1 construct: extracellular domain; also called soluble cMet-Fc-fusion protein; soluble cMet receptor; not shown: Fc part
T1 sequence (P08581 25-932): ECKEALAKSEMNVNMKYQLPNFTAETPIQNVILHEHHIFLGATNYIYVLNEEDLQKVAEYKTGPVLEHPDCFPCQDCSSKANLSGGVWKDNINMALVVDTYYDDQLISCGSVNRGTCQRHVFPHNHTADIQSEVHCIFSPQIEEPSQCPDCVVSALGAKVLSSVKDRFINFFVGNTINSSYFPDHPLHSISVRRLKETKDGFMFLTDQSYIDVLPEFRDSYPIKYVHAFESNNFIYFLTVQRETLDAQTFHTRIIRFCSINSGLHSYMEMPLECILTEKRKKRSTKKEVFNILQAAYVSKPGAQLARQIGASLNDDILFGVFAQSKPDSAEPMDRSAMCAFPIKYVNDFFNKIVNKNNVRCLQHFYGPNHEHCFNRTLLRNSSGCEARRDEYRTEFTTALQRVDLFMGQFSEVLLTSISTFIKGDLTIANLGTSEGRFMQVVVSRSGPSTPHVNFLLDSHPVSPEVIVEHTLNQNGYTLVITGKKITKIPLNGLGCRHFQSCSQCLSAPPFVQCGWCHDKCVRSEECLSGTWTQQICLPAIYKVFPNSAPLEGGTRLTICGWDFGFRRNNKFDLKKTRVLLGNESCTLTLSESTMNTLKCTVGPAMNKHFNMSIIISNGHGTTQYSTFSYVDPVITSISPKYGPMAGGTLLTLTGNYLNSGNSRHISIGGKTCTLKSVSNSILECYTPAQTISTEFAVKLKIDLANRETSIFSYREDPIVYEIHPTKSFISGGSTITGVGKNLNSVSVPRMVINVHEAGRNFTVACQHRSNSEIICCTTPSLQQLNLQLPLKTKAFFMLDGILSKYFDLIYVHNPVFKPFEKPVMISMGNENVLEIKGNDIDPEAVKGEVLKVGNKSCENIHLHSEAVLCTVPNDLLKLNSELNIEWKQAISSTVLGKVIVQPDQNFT
Test: phage ELISA on cMet-Fc, competitor HGF 500 ng/mL
Please mark condition met if the recorded % of binding in the absence of HGF is equal to or greater than 60%, and condition not met if it falls below.

BINDER	ASSIGNED LABEL
AGSYWCSGPPTFMCRYEGT [545-B12 peptide-displaying phage (SEQ ID NO: 085)]	condition not met
AQRPEAHYKLAMSYPIIPRTKT [96-H12 peptide-displaying phage (SEQ ID NO: 452)]	condition met
AQMWHRVHDPGYTFEVTWLWDN [166-H04 peptide-displaying phage (SEQ ID NO: 488)]	condition met
AGETVCYWLNGWFCVDDGT [274-B07 peptide-displaying phage (SEQ ID NO: 073)]	condition met
AGPLFCFEWPSLCHWGGT [448-H02 peptide-displaying phage (SEQ ID NO: 033)]	condition met

In the following, a different binder is considered.
Assess whether reported % of binding in the absence of HGF for AGKQWCVVWEETCDQLGT [465-F10 peptide-displaying phage (SEQ ID NO: 039)] sits at 60% or higher.
condition not met
